B1: tRNA (parent)
chain: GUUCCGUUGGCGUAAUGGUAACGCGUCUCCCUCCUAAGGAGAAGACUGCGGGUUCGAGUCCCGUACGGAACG

Variants of: B1
Measurement description: yeast fitness relative to wild type (ratio to wild type); higher = fitter; tRNA-Arg(CCU), competitive growth, 37 C, YPD
Fewer inactive variants are shown than the library holds.
Measured parameter: yeast fitness
Lab note: jot down the number only; don't add units.

# annotated cases, reported yeast fitness shown
INSERT INTO results (biopolymer_sequence, measured_parameter, result_value) VALUES
  ('GUUCCGUUGGUGCAGUGGUAACGCGUCUCCCUCCUAAGGAGAAGAAUGCGGGUUCGAGUCCCGUACGGAACG [C11U U13C A15G C46A]', 'yeast fitness', 0.631),
  ('GUUCCGUUGGCGUAAUGGUAACGCGUCUCCCUCCUAUGGAGAAGACUCCGGGUUCGAGUCCCGUACGGAACG [A37U G48C]', 'yeast fitness', 0.674),
  ('GUUCCGUUGGCGUAAUGGUAACGCGUCUAACUCCUAAGGAGAAGACUGCGGGUUCGAGUCCCGUACUGAACG [C29A C30A G67U]', 'yeast fitness', 0.667),
  ('GUUCCGUUGGCGUAAUGGUAACGCGUUUCCCUCCUAAAGAGAAGACUGCGGGUUCGAGUCCCGUACGGUACG [C27U G38A A69U]', 'yeast fitness', 0.667),
  ('GAUCCGUUGGCGUAAUGGUUACGCGUCUCCCUCCUAAGGCGAAGACUGCGGGUUCGAGUCCCGUACGGAACG [U2A A20U A40C]', 'yeast fitness', 0.552),
  ('GUUCAGUUGGCGUAAUGGUAACGCGUCUCCCUCCUAAGGAGAAGACUGCGGGUUCGAGUCGCGUACGGAGCG [C5A C61G A70G]', 'yeast fitness', 0.585),
  ('GUCUCGUUGGCGUAAUGGUAACGCGUCUCCCUCCUAAGGAGAAGACUGCGGGUUCGAGUCCCGUACGGAACG [U3C C4U]', 'yeast fitness', 1.01),
  ('GUUCCGUUGGCGUAAUGGUAACGCGUCUCCCUCCUAAGGAGAAGACUGCGGGUUCAAGUCCCGUAGGGAACG [G56A C66G]', 'yeast fitness', 0.689),
  ('GUACCGUUGGCGCAAUGGUAACGCGUCUCCCUCCUAAGGAGAAGACUGCGGGUUCGAGUCCCGUACGAAACG [U3A U13C G68A]', 'yeast fitness', 0.528),
  ('GUUCCGUUGGCGUAAUGGUAAGGCGUCUCCCUCCUAAGGAGACGACUGCGGGUUGGAGUCCCGUACGGAACG [C22G A43C C55G]', 'yeast fitness', 0.577);

## Task Would you kindly share the measured yeast fitness for GUUCCGUUGGCGUAAUGAUAACGCGUCUCCCUCCUAAGGAGAAGACUGCGGGUUCGAGUCCCGUACCGAACG [G18A G67C] ?
## Result 0.841

## Task Would you kindly share the measured yeast fitness for GUUCCAUUGGCGUGAUGGUAACGCGUCUCCCUCCUAAGGAGAAGACUGUGGGUUCGAGUCCCGUACGGAACG [G6A A14G C49U] ?
## Result 0.57

## Task Would you kindly share the measured yeast fitness for GAUCCGUUGGCGUAAUGGUAACGCGUCUCCCUCCUAAGGGGAAGACUGCGGGUUCGAGUCCCGUACGGUACG [U2A A40G A69U] ?
## Result 0.553

## Task Would you kindly share the measured yeast fitness for GUUGCGUUGGCGUAAUGGUAACGGGUCUCCCUCUUAAGGAGAAGACACCGGGUUCGAGUUCCGUACGGAACG [C4G C24G C34U U47A G48C C60U] ?
## Result 0.521

## Task Would you kindly share the measured yeast fitness for GUUCCGUUGGCGUAAUGGUAACGCGUCUCCCUCCUAAGGAGAAGAUUGCGGGCUCGAGUCCCGUACGGAACG [C46U U53C] ?
## Result 0.854

## Task Would you kindly share the measured yeast fitness for GUUCCGUUGGCCUAAUGGUAACGCGUCUCCCUCCUAAGGAGAAGACUGCGGGUUCCAGUCCCGUACGGAACG [G12C G56C] ?
## Result 0.694

## Task Would you kindly share the measured yeast fitness for GUUCCGUUGGCGUAAUGGUAACGCGUCUUCCUCAUAAGGAGAAGACUGCGGGUUCGAGUCCCGUACGGAACG [C29U C34A] ?
## Result 0.761

## Task Would you kindly share the measured yeast fitness for GUUCCGUUGGCGUAAUGGUAACGCGUCUCCCCCCUAAGGAGACGACUGCGGGUUCGAGUCCCGUACGGAACG [U32C A43C] ?
## Result 0.83

## Task Would you kindly share the measured yeast fitness for GUUCCGUUGACGUAAUGGUAACGCGUCUCCCUCCUAAGGAGAAGACUGCGGGUUCGAGUCCUGUAUGGAACG [G10A C62U C66U] ?
## Result 0.617

## Task Would you kindly share the measured yeast fitness for GUUCCGUCGGCGUAAUGGUAACGCGUAUCCCUCCUAAGGAGCAGACUGCGGGUUCGAGUCCCGUACGGAACG [U8C C27A A42C] ?
## Result 0.532

## Task Would you kindly share the measured yeast fitness for GUUCUGUUGGUGUAAUGGUAACGCGUCUCCCUCCUAAGGAGAAGACUGCGGGUUCGAGUUCCGUACGGUACG [C5U C11U C60U A69U] ?
## Result 0.538

## Task Would you kindly share the measured yeast fitness for GUUCCGUUGGCGUAAUGGUAACGCAUCUCCCUCCUAAGGAGAAGACUGCGGGUUCGAGUGCCCUACGGAACG [G25A C60G G63C] ?
## Result 0.548

## Task Would you kindly share the measured yeast fitness for GUUCCGUUGGCGUAUUGGUAACGCGACUGCCUCCUAAGGAGAAGACUGCAGGUUCGAGUCGCCUACGGAACG [A15U U26A C29G G50A C61G G63C] ?
## Result 0.57
